experiment: Octanol/water partition coefficient, logP of compound; assay type: physicochemical
Quantity kind: logP
# answer = number (no unit)

Query: Read off the recorded logP for CCOC(=O)CNP(=O)(OC[C@@H](Cc1ccccc1)NC(=O)c1cc2ccccc2s1)Oc1ccccc1 (some centres not stated)
Response: 0.27
